Collected MIC values appear next to each entry.
Tested on: M. bovigenitalium ATCC 14173
Test summary: MIC against mycoplasma in vitro
Type: cell-based
Experimental context: 144 h; M. bovigenitalium ATCC 14173; 6 days, 37° C.; read-out: MIC

| Molecule | Measured on | Unit name | MIC |
| --- | --- | --- | --- |
| C/C(=C\c1ncc(-c2ccc(C(=O)O)cc2)o1)C[C@@H]1OC[C@H](C[C@@H]2O[C@H]2[C@@H](C)[C@H](C)O)[C@@H](O)[C@H]1O [Example 17] | M. bovigenitalium ATCC 14173 | µg/mL | 5 |
| C/C(=C\c1ncc(-c2ccc([N+](=O)[O-])cc2)o1)C[C@@H]1OC[C@H](C[C@@H]2O[C@H]2[C@@H](C)[C@H](C)O)[C@@H](O)[C@H]1O [Example 3] | M. bovigenitalium ATCC 14173 | µg/mL | 0.05 |
| C/C(=C\c1nc(C)c(-c2ccccc2)o1)C[C@@H]1OC[C@H](C[C@@H]2O[C@H]2[C@@H](C)[C@H](C)O)[C@@H](O)[C@H]1O [Example 40] | M. bovigenitalium ATCC 14173 | µg/mL | 10 |
| C/C(=C\c1nc(-c2ccccc2)c(-c2ccccc2)o1)C[C@@H]1OC[C@H](C[C@@H]2O[C@H]2[C@@H](C)[C@H](C)O)[C@@H](O)[C@H]1O [Example 41, 4,5-Diphenyl-2-(1-normon-2-yl)oxazole A] | M. bovigenitalium ATCC 14173 | µg/mL | 5 |
| C/C(=C\c1cc(-c2ccccc2)no1)C[C@@H]1OC[C@H](C[C@@H]2O[C@H]2[C@@H](C)[C@H](C)O)[C@@H](O)[C@H]1O [Example 31, 5-(1-Normon-2-yl)-3-phenylisoxazole A] | M. bovigenitalium ATCC 14173 | µg/mL | 5 |

* * *

Tested on: Ps. aeruginosa NCTC 10662
Test summary: MIC against human bacteria in vitro
Type: cell-based
Experimental context: Pseudomonas aeruginosa, NCTC10662; Ps. aeruginosa NCTC 10662; 5% chocolated horse blood agar, 18 hours; read-out: MIC
Here, each record is paired with measured MIC data.

| Smiles str | Measured on | MIC |
| --- | --- | --- |
| C/C(=C\c1ncc(-c2ccc(CO)cc2)o1)C[C@@H]1OC[C@H](C[C@@H]2O[C@H]2[C@@H](C)[C@H](C)O)[C@@H](O)[C@H]1O | Ps. aeruginosa NCTC 10662 | > 128 µg/mL |
| C/C(=C\c1ncc(-c2ccccc2)s1)C[C@@H]1OC[C@H](C[C@@H]2O[C@H]2[C@@H](C)[C@H](C)O)[C@@H](O)[C@H]1O | Ps. aeruginosa NCTC 10662 | > 100 µg/mL |
| C/C(=C\c1cc(-c2ccccc2)no1)C[C@@H]1OC[C@H](C[C@@H]2O[C@H]2[C@@H](C)[C@H](C)O)[C@@H](O)[C@H]1O | Ps. aeruginosa NCTC 10662 | > 128 µg/mL |
| C/C(=C\c1ncc(CCCCCCCC(=O)O)o1)C[C@@H]1OC[C@H](C[C@@H]2O[C@H]2[C@@H](C)[C@H](C)O)[C@@H](O)[C@H]1O | Ps. aeruginosa NCTC 10662 | > 16 µg/mL |
| C/C(=C\c1ncc(Cc2ccccc2)o1)C[C@@H]1OC[C@H](C[C@@H]2O[C@H]2[C@@H](C)[C@H](C)O)[C@@H](O)[C@H]1O | Ps. aeruginosa NCTC 10662 | > 64 µg/mL |
| C/C(=C\c1ncc(-c2ccccc2)o1)C[C@@H]1OC[C@H](C[C@@H]2O[C@H]2[C@@H](C)[C@H](C)O)[C@@H](O)[C@H]1O | Ps. aeruginosa NCTC 10662 | > 100 µg/mL |
| C/C(=C\c1cc(C)on1)C[C@@H]1OC[C@H](C[C@@H]2O[C@H]2[C@@H](C)[C@H](C)O)[C@@H](O)[C@H]1O | Ps. aeruginosa NCTC 10662 | > 128 µg/mL |
| C/C(=C\c1ncc(-c2ccsc2)o1)C[C@@H]1OC[C@H](C[C@@H]2O[C@H]2[C@@H](C)[C@H](C)O)[C@@H](O)[C@H]1O | Ps. aeruginosa NCTC 10662 | > 128 µg/mL |
| C/C(=C\c1ncc(-c2ccc(S(=O)(=O)N(C)C)cc2)o1)C[C@@H]1OC[C@H](C[C@@H]2O[C@H]2[C@@H](C)[C@H](C)O)[C@@H](O)[C@H]1O | Ps. aeruginosa NCTC 10662 | > 64 µg/mL |
